Biological target: Cell division control protein 42 homolog (Homo sapiens)
Assay: inhibition of fluorescent GTP binding to wildtype Cdc42 – biochemical, multiplex bead flow cytometry, Bodipy-FL-GTP, dose response (AID 1334);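 also: potency of inhibiting fluorescent GTP binding to Cdc42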
Details: bead-based flow cytometry, Bodipy-FL-GTP binding to GST-Cdc42
endpoint_name: EC50

See these solved cases before continuing.
compound=CCCc1nc2c(=O)n(C)c(=O)nc-2n(C)n1 endpoint_name=EC50 recorded_measurement="1.33 µM"
compound=CCCN1C(=O)/C(=C/C=C2\N(CC)c3ccccc3C2(C)C)SC1=S endpoint_name=EC50 recorded_measurement="5.49 µM"
compound="COc1ccc(C2CC(c3ccccc3)=NN2c2ccc(S(N)(=O)=O)cc2)cc1 (stereo not given)" endpoint_name=EC50 recorded_measurement="3.2 µM"

Shifting focus to the compound that follows.
Briefly, EC50 measured for O=C(O)c1ccccc1NCCc1ccc(Cl)cc1 : 1.53 µM

###

Biological target: Cell division control protein 42 homolog (Homo sapiens) (UniProt P60953)
Sequence (P60953 whole entry, looked up): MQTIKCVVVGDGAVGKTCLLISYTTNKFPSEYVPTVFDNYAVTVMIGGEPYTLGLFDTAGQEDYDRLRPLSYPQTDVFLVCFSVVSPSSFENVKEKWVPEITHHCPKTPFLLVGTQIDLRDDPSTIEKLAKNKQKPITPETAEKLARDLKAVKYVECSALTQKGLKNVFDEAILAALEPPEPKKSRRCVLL
Assay: inhibition of fluorescent GTP binding to wildtype Cdc42 – biochemical, multiplex bead flow cytometry, Bodipy-FL-GTP, dose response (AID 1334);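 also: potency of inhibiting fluorescent GTP binding to Cdc42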
Settings: bead-based flow cytometry, Bodipy-FL-GTP binding to GST-Cdc42
# key: entry, value: pEC50
Keep in mind that pEC50 stands for -log10 of concentration in molar terms.

See these solved cases before continuing.
compound=O=C(O)c1ccccc1Sc1ncnc2sc3c(c12)CCC3 endpoint_name=pEC50 recorded_measurement=5.36
compound=O=C(O)c1ccccc1OCc1ccccc1Br endpoint_name=pEC50 recorded_measurement=6.99

Briefly, pEC50 measured for CCS(=O)(=O)N1N=C(c2cccc(NS(C)(=O)=O)c2)CC1c1ccc(C)cc1 (stereo unspecified) : 5.59

###

Target: Cell division control protein 42 homolog (Homo sapiens) (UniProt P60953)
Assay: inhibition of fluorescent GTP binding to wildtype Cdc42 – biochemical, multiplex bead flow cytometry, Bodipy-FL-GTP, dose response (AID 1334);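 also: potency of inhibiting fluorescent GTP binding to Cdc42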
Details: bead-based flow cytometry, Bodipy-FL-GTP binding to GST-Cdc42
# key: entry, value: EC50

See these solved cases before continuing.
molecule=O=C(O)/C=C/c1cn(Cc2ccccc2)nc1-c1cccs1 recorded_measurement="3.99 µM"
molecule=Cc1ccc(C)c(OCCn2cc(C(=O)O)c3ccccc32)c1 recorded_measurement="0.584 µM"
molecule=CCCS(=O)(=O)c1nnnn1-c1cccc(OC)c1 recorded_measurement="19.3 µM"
molecule=CCOC(=O)c1cc([N+](=O)[O-])c([N+](=O)[O-])cc1NC(C)=O recorded_measurement="7.19 µM"
molecule="NS(=O)(=O)c1ccc(N2N=C(c3ccccc3)CC2c2ccccc2)cc1 (stereo unspecified)" recorded_measurement="8.22 µM"
molecule="CCC(C(=O)NC1CCCC1)N(C(=O)Cn1nnc(-c2ccc(C)o2)n1)c1cnc2ccccc2c1 (stereo unspecified)" recorded_measurement="34.6 µM"

Briefly, EC50 measured for CCOC(=O)c1c(NC(=O)C(=O)N/N=C/c2ccc(O)c(OC)c2)sc2c1CCCCC2 : 2.87 µM

Briefly, EC50 measured for O=C(Nc1nnc(-c2ccc3c(c2)OCCO3)o1)c1ccc(Cc2ccccc2)cc1 : 0.355 µM

Briefly, EC50 measured for N#Cc1c(-c2ccccc2)nc(SCC(=O)Nc2ccccc2)[nH]c1=O : 2.1 µM

Briefly, EC50 measured for COc1ccc(-c2cc(C#N)nc(N3CCNCC3)n2)cc1 : 28.1 µM

Briefly, EC50 measured for Cc1nc2c(=O)n(C)c(=O)nc-2n(C)n1 : 1.96 µM
